// data source = patent US9598424B2

molecular target: TBK1 (Homo sapiens); construct: host or cells: RA1-ISRE beta-lactamase reporter cells; assay: Inhibition of TBK1 in Cells (TLR3 driven ISRE β-lactamase reporter assay); type: cell-based; conditions: poly IC-LMW stimulation 16 hrs; -log(EC50), EC50 molar; read-out: Inhibition of TBK1 in cells pEC50 (EC) (converted)
Recorded endpoint: EC50 (nM)

N[C@H]1CCCC(F)(F)[C@@H]1NC(=O)c1cc(-c2ccc3nc(NC(=O)C4CC4)cn3c2)cs1; 55
O=C(NCC(F)(F)F)c1cc(-c2ccc3nc(NC(=O)C4CC4)cn3c2)cs1; 120
O=C(NC1CCOC1=O)c1nc(-c2ccc3nc(NC(=O)C4CC4)cn3c2)cs1 (centres unmarked); 5500
COCCN(CC(F)F)C(=O)c1cc(-c2ccc3nc(NC(=O)C4CC4)cn3c2)cs1; 1120
Cc1sc(C(=O)NCC(F)(F)F)cc1-c1ccc2nc(NC(=O)C3CC3)cn2n1; 5370

[a] O=C(NCC(F)(F)F)c1cc(-c2cn3cc(NC(=O)C4CC4)nc3cn2)cs1
[b] O=C(NCC(F)(F)F)c1ncc(-c2ccc3nc(NC(=O)C4CC4)cn3c2)[nH]1
Qu. So which one has the bigger EC50 here, a or b ? Identify your pick by its label.
Ans. b
(b: 479 nM, a: 269 nM)

###

biological target: TBK1 (Homo sapiens, UniProt Q9UHD2); construct: host or cells: RA1-ISRE beta-lactamase reporter cells; assay: Inhibition of TBK1 in Cells (TLR3 driven ISRE β-lactamase reporter assay); type: cell-based; conditions: poly IC-LMW stimulation 16 hrs; -log(EC50), EC50 molar; read-out: Inhibition of TBK1 in cells pEC50 (EC) (converted)
Sequence (Q9UHD2 whole entry): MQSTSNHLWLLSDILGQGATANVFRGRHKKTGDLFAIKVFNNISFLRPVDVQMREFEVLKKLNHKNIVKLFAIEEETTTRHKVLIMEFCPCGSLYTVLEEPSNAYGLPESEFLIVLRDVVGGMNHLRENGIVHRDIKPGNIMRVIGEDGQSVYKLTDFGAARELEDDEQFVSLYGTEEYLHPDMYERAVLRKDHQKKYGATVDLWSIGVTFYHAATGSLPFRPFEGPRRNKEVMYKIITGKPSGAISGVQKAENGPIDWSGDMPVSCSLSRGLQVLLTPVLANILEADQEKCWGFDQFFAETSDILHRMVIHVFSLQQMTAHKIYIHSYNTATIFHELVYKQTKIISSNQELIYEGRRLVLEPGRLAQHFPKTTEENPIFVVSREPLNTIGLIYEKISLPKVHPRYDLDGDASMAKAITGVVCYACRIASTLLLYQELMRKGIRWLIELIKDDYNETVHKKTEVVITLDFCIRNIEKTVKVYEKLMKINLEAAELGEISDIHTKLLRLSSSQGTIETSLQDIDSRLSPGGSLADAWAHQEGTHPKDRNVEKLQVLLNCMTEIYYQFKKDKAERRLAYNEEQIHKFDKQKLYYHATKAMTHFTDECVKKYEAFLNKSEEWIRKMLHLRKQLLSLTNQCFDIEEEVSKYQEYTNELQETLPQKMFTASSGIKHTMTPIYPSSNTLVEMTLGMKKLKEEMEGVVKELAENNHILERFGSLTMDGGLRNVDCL
Recorded endpoint: EC50 (nM)

# annotated cases, reported EC50 shown
O=C(NCC(F)F)c1cc(-c2ccc3nc(NC(=O)C4CC4)cn3c2)n[nH]1 [Example 27]; 3720
O=C(NCC(F)F)c1nc(-c2ccc3nc(NC(=O)C4CC4)cn3n2)cs1 [Example 8]; 9120
O=C(NCC(F)F)c1cc(-c2ccc3nc(NC(=O)C4CC4)cn3c2)cs1 [Example 55]; 275
O=C(NCC(F)(F)F)c1cc(-c2ccc3nc(NC(=O)C4CC4)cn3c2)[nH]n1 [Example 51]; 490
O=C(NCC(F)(F)F)c1ccn(-c2cn3cc(NC(=O)C4CC4)nc3cn2)n1 [Example 36]; 245

[1] CC(C)C(NC(=O)c1cc(-c2ccc3nc(NC(=O)C4CC4)cn3c2)cs1)C(F)(F)F (centres unmarked) [Example 117]
[2] O=C(NC1(C(F)(F)F)CC1)c1cc(-c2ccc3nc(NC(=O)C4CC4)cn3c2)cs1 [Example 118]
Qu. Kindly identify the item with the lower EC50 figure among these two: 1 and 2 Give the chosen item's label as your response.
Ans. 2
(2: 676 nM, 1: 6460 nM)

###

Recorded endpoint: melting point

CC(=O)Nc1cn2cc(-c3csc(C(=O)NCC(F)(F)F)c3)ccc2n1; 180 to 182 °C
Cc1c(-c2ccc3nc(NC(=O)C4CC4)cn3c2)n[nH]c1C(=O)NCC(F)(F)F; > 275 °C
COCCC(=O)Nc1cn2cc(-c3csc(C(=O)NCC(F)(F)F)c3)ccc2n1; 231 to 233 °C

Qu. Note down melting point recorded for "Cn1nc(-c2ccc3nc(NC(=O)C4CC4)cn3c2)cc1C(=O)NCC(F)F"
Ans. 284 to 290 °C

Qu. Please give measured melting point of the following entry: "COCC(=O)Nc1cn2cc(-c3csc(C(=O)NCC(F)(F)F)c3)ccc2n1"
Ans. 230 to 232 °C
